molecular target: m1 muscarinic receptor (Homo sapiens); experiment: cell-based; format: cell-based; set-up: expressed in transfected cells; host or cells: NIH 3T3 (mouse fibroblasts); settings: read-out: EC50
Sequence (P11229 whole entry): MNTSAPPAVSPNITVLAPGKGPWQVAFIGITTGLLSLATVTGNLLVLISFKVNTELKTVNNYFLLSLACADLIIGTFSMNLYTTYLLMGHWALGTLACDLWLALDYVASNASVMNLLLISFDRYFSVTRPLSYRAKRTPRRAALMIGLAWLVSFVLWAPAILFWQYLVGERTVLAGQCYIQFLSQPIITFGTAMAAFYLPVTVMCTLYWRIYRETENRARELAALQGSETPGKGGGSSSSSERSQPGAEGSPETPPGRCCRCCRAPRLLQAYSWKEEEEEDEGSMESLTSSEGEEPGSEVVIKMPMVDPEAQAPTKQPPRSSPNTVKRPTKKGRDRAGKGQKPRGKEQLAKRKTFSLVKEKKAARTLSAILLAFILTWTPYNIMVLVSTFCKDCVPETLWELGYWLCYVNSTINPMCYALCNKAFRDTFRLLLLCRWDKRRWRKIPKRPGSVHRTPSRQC
value.type: EC50 (nM)
Give just the number in nM; leave the unit off.

Query: Given `O=C1CCCN1CC#CCN1CCCC1` , state its recorded EC50.
Response: 390

====

biological target: m5 muscarinic receptor (Homo sapiens); construct: expressed in transfected cells; host or cells: NIH 3T3 (mouse fibroblasts); type: cell-based; conditions: m5, Table 2; read-out: Ligand EC50
Sequence (P08912 whole entry): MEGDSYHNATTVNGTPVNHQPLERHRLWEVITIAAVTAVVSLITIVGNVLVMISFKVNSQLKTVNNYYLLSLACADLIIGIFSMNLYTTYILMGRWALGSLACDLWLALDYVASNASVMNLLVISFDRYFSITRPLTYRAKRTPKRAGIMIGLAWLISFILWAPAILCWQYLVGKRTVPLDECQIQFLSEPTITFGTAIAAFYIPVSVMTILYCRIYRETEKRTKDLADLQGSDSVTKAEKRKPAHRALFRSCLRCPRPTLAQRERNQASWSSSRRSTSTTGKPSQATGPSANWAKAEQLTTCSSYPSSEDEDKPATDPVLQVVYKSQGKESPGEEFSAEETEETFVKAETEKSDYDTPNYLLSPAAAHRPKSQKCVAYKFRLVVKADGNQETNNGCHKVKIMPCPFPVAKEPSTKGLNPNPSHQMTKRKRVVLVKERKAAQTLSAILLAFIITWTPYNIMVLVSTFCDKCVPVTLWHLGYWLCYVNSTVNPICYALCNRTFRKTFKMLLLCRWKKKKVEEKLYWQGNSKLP
value.type: EC50
Note: state the figure and append the unit.

Query: Given `O=C1CCCN1CC#CCN1CCCC1` , state its recorded EC50.
Response: 55 nM

====

Biological target: alpha 2 C2 adrenergic receptor (Homo sapiens)
Sequence (P18089 1-450): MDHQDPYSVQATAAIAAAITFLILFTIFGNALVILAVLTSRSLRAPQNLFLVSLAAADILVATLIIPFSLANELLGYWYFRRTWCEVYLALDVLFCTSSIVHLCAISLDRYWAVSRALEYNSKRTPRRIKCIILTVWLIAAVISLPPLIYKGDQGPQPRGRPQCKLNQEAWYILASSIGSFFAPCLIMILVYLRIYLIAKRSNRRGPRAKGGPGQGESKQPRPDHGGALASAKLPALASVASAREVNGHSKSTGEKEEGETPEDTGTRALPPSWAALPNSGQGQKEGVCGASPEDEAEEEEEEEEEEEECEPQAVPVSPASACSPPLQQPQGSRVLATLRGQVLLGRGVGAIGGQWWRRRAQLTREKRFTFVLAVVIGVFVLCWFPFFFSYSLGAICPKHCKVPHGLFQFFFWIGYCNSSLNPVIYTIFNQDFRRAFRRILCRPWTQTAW
Type: cell-based
value.type: EC50 (nM)
Give just the number in nM; leave the unit off.

Query: Given `Cc1cccc([C@H](C)c2cnc[nH]2)c1C` , state its recorded EC50.
Response: 2

====

biological target: m3 muscarinic receptor (Homo sapiens, UniProt P20309); experiment: cell-based; design: expressed in transfected cells; host or cells: NIH 3T3 (mouse fibroblasts); conditions: read-out: Ligand EC50
Sequence (P20309 whole entry): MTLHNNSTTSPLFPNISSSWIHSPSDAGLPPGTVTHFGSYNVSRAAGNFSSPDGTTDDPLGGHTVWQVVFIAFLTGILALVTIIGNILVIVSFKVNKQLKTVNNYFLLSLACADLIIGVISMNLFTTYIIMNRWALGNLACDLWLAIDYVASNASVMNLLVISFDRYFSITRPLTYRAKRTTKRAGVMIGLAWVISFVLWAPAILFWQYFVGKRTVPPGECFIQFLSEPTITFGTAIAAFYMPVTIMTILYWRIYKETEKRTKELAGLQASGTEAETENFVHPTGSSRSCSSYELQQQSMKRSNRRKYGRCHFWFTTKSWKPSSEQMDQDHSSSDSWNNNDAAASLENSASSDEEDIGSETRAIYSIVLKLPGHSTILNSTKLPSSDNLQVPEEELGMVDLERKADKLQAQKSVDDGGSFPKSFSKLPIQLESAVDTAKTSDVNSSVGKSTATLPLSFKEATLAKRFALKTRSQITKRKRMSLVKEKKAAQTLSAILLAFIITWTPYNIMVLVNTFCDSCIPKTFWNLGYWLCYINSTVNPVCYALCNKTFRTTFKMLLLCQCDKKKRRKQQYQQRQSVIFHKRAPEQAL
value.type: pEC50
Please report pEC50 as the negative decimal logarithm of the molar concentration, giving only the number.

Query: Given `O=C1CCCN1CC#CCN1CCCC1` , state its recorded pEC50.
Response: 6.68

====

Below, each of the compounds is paired with its reported EC50 value.
target: UniProt P08913; conditions: α2-C10, Table 3
Sequence (P08913 whole entry): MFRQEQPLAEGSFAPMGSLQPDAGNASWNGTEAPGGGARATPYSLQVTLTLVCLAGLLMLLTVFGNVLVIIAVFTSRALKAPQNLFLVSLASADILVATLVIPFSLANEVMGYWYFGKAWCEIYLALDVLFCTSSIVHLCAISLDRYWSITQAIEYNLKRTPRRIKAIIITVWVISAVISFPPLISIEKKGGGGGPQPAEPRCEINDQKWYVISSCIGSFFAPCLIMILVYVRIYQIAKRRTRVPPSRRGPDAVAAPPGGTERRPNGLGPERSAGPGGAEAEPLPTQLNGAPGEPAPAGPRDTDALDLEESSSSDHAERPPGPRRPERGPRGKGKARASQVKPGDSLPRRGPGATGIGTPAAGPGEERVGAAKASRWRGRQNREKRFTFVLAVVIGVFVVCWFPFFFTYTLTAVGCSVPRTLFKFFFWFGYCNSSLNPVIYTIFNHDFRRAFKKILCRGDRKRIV

| compound.smiles | EC50 |
| --- | --- |
| CCN1CCc2nc(N)oc2CC1 | > 10 µM |

Attention now turns to another entry.
Query: Given `C=CCN1CCc2nc(N)sc2CC1` , state its recorded EC50.
Response: > 10 µM

====

biological target: m4 muscarinic receptor (Homo sapiens)
Sequence (P08173 whole entry): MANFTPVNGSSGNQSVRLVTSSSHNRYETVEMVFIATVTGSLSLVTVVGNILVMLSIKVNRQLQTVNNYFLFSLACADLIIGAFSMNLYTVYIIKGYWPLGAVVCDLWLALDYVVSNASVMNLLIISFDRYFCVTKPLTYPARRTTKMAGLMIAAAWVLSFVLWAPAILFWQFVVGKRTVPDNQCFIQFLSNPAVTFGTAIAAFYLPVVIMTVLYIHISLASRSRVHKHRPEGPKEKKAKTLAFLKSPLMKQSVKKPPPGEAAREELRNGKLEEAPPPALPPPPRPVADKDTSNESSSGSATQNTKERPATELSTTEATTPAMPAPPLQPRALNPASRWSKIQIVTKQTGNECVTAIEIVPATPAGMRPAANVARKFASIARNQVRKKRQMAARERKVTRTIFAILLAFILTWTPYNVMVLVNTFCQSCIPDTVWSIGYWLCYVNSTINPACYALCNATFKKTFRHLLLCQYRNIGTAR
value.type: pEC50
Please report pEC50 as the negative decimal logarithm of the molar concentration, giving only the number.

Query: What pEC50 appears in the records for this molecule with m4 muscarinic receptor (Homo sapiens)? `O=C1CCCN1CC#CCN1CCCC1`
Response: 7.48

====

target: m5 muscarinic receptor (Homo sapiens); construct: expressed in transfected cells; host or cells: NIH 3T3 (mouse fibroblasts); format: cell-based
value.type: Ki (nM)
Give just the number in nM; leave the unit off.

Query: Given O[Si](CCCN1CCCCC1)(c1ccc(F)cc1)C1CCCCC1 (stereo not shown) [p-F-HHSiD] , state its recorded Ki.
Response: 79.4
